Assay: soluble on expression in E. coli; label from the status in PepcDB or PDB records

input.sequence: MGSDKIHHHHHHMSFYIYGILTLPAPQNLNLEGLDRQPVQIKILDDFAVIYSEAQQERYLASRRNLLSHEKVLEEIMQAGDRYLLPVQFGLLVSSWETVSQQLIRPHQEELTQLLAKLSGCREVSVKVFWDTEAEIQGLLAEHPNLKTERDKLVGQPLSMERVIQIGQVIEQGMSDRKQGIIDVFKGTLNSIAIEVVENTPQVDTMIYNSAYLIPWEAESQFSEHVESLDRQFENRLRIRYNNFTAPYNFARLRLTTSN
soluble on expression in E. coli: not soluble
--
input.sequence: MGSDKIHHHHHHMKLLDHKLSLLEITDEEKSDEIILNLSRNVKKDLEDIVVANVSMENVLVMNIKVPPTLNKQNAVEYATMEISRNLGILPEQLVVAPLDIRGGEGLFFVSKVDQVKSFVTDLMKKEFPETDVVIPDIVKYLEVFEFYFGKRLKGTSVLTVISFLSDYYSIVVLENNHYRSLRLLFSMFWDYMDIVVENTGIQPKELIEGTVNVDLSFLQPYFGDFLIELDREVKVSLDEVNLSRVNQFFYIVDPPIFSPVLSQSLEKFEGVALKQGIVPSFKPGISLGTLGLMIRGGREIGKVKHLSV
soluble on expression in E. coli: not soluble

====

Assay: soluble on expression in E. coli; label from the status in PepcDB or PDB records

input.sequence: MSLNRNHPANGWPLALLLAATLALHGCNEPTAATAAPANTTRHGDYTPLTVQHKLGTTVISQLPQRTVALDMNEVDFLDQLGVPVAGMPKDFVPDFLARYKDAGQTADVGSIVQPNLERVHAARPDLILITSLQANHYDELSEMAPTLHFDVDYRDSETGHVAMVRQHLLSLGQVFGKQGLAQRKADALEAKLAQARSVTRDRPERALVVLHNNGAFSAFGVQSRYGFIFNDLGVKPATTTLDTGLHGQPISSEFIQQANPDILYVVDRTAVMEHRPMMTADTLDNPLLRQTNAWKHGRVVFVDPQAWYVTAASPTSLALIADDVIRGYQDEGHHHHHH
soluble on expression in E. coli: soluble
//
input.sequence: MSLADKATIYIIDDDEIFQFITRKSFERLERNDNLFFFLNGEDALSSIKEAISGNKPSPDLIFLDINMPIMDGWDFLAELIKLEGEMKKTPQIYMVSSSIDDKDLIKSKTYNMIKDYIVKPIKDTHIKELLNNLNEGHHHHHH
soluble on expression in E. coli: soluble

====

Experiment: soluble on expression in E. coli; label from the status in PepcDB or PDB records
property: soluble on expression in E. coli

input.sequence: MGSDKIHHHHHHAATLLASCNKDEEETEIQGFKVLEYRPAPGQFINEGFDCQTMEEANAYAEERFNKKLYVSLGSFGGYITVKMPKEIKNRKGYDFGIIGNPFSGSSEPGIVWVSEDANGNGKADDVWYELKGSDEPERDYSVTYHRPDAAGDIPWEDNKGESGIIKYLPQYHDQMYYPNWIKEDSYTLKGSMLEARTEQEGGIWKNKDFGKGYADNWGSDMAKDDNGNYRYNQFDLDDAVDQNGNPVTLERIHFVKVQSAILKNVESIGEVSTEVVGFKAF
property: soluble on expression in E. coli
result: not soluble
//
input.sequence: QINPAARKELVIENDIETMHPVFKGFKDKLVPHLRMAAQGATLTGVNVPIGDKVFRWNLSPIRVDGDISGIIVQGQDITTLIEAEKQSNLARREAEKSAQARADFLAKMSHEIRTPINGILGVAQLLKDSVEAEEQKNQIDVLRHSGEHLLAVLNDILDFSKIEQGKFNIQKHPFSFADTMRTLENIYRPICENKGVELVIENQLDGNVEIFTDQVRLNQILFNLVSNAVKFTPSGCVRLHAELEQFYGADNSVLVVEISDTGIGIESDKLDEMFEPFVQEEATTTR
property: soluble on expression in E. coli
result: not soluble
//
input.sequence: MDSEEPPNVRVACSGDIDEVVRLMHDAAAWMSAKGTPAWDVARIDRTFAETFVLRSELLVASCSDGIVGCCTLSAEDPEFWPDALKGEAAYLHKLAVRRTHAGRGVSSALIEACRHAARTQGCAKLRLDCHPNLRGLYERLGFTHVDTFNPGWDPTFIAERLELEI
property: soluble on expression in E. coli
result: not soluble

====

Assay: soluble on expression in E. coli; label from the status in PepcDB or PDB records
property: soluble on expression in E. coli

input.sequence: MGSDKIHHHHHHVPEQHICTYEYRLANPNPRPIVGRFQLNFTLDVNGCESGTPVLYLEHVQVHATVRYLKRGDLKLTLFSPSGTRSVLLPPRPQDFNANGFHKWPFLSVQQWGEDPRGTWLLMVESVTTNPAATGTFHDWTLLLYGTADPAQSGDPVYSATPATSQGVLSRVHQLTSQILITIAIHLVVNA
soluble on expression in E. coli: not soluble

input.sequence: MGSDKIHHHHHHMRVSVRNLTKIFRVGSIFSLKKLVAIDNVSFEIGSGEIFSLAGESGCGKTTTAKILLGLEEPTNGEVLYDGIKLKDFVENEMHFLKKVQTVQQNPFSTFNPFRKVEDYLFKTVLRFKMANTKDEALRLIEEKLSVVGLNFDEIKGRYPSEFSGGQLQRISIARALLTNPSFLVADEPVSMIDASLRISIVNLFRDLKERFGISILYITHDLSTAYYVADKLAIMFRGSIVEMGRAQDILDTPFHPYTKLLKSSIPVPDPEYEWDENINLSSTEREEFFAKGCKFASRCPEVMSICRESVPPDFDVNGRVVKCWLYK
soluble on expression in E. coli: not soluble

input.sequence: MGHHHHHHSHMPPYPANSVFCKDKVSLCCQVGPDFLGSSAPFSASHSAGITGMSHYAQPVFCSLNKGRTVW
soluble on expression in E. coli: not soluble

input.sequence: MSLQMERRGISALPLHYGHPPEYLFKRAVKLSGIMAEIIVDTYGQGELIRRLADPFWFHSLSLVTGFDWNSSGTTVFTLSALKEYLSTRDLGVKVCGGKASAMADMRADLLSSVETGILKEDDKEYVYENARRIAKIDNSLLQDGYDLYMQFVVVSDRGRHAVIQQGMNSEDRMARRYHWLIGNERVDVEGRYGLSADKTSLNVLDLSATESRDNRSAIVASVREGEVWRFRSGAQSTLDNFSLPFLDLSGRVNWKKLRDLYEYGVDDFEKIYMEKGIGKSTLRALSYIAEVIYGPKASFRDPVKFSFAVGGKDGIPKPVNTYDYDRAIEFFSDLIREKDLNVREKETIARSLAHLSQMKTNFYSEGHHHHHH
soluble on expression in E. coli: soluble

input.sequence: MEVHAADQYLVAPGEADLLEVHARLAGTGLFPPFPPVELPGGVGGLVARGGFAQTFFFPAEVLGLTFRTPKGRRVRAGGVVVKNVQGYDLVRLFVGSFGLLGRAEEVVLRLRPGRAQAFLRRPFSGSFPRLVPTPRFLFALEDEEGPWLYAYHFGHPKEVERFREAFGGEEARPLDLRPRFPRGLGLGEGPLWDLRFRYQDGGASPPPPPAFLRLARVL
soluble on expression in E. coli: soluble

# context switch: different sequence, same soluble on expression in E. coli
Tell us which soluble on expression in E. coli value is on record for MSLNNVKLLIAGSAFFAMSAQAADRVSIDVKVTLEAAACTPILSNGGVVNFGSHSVNRLSTQHYTQIGTRNINMTITCESATGIAITARDTRMDSMTTGKDSGGQSGVKYTLNGGGYISQTTRLFGLGKTKDNKNIGSYAVLIDSNNISASNGSQTLAVSIAGADAVITGQKRAWQTLTAYPLAVDQSYYYTFVKPGETTPTPVTNAIIPLQVSASIANDLGGSEKIELDGKAVISVVYLEGHHHHHH not soluble

====

Assay: soluble on expression in E. coli; label from the status in PepcDB or PDB records
property: soluble on expression in E. coli

input.sequence: MIIDIHGHYTTAPKALEDWRNRQIAGIKDPSVMPKVSELKISDDELQASIIENQLKKMQERGSDLTVFSPRASFMAHHIGDFNVSSTWAAICNELCYRVSQLFPDNFIGAAMLPQSPGVDPKTCIPELEKCVKEYGFVAINLNPDPSGGHWTSPPLTDRIWYPIYEKMVELEIPAMIHVSTSCNTCFHTTGAHYLNADTTAFMQCVAGDLFKDFPELKFVIPHGGGAVPYHWGRFRGLAQEMKKPLLEDHVLNNIFFDTCVYHQPGIDLLNTVIPVDNVLFASEMIGAVRGIDPRTGFYYDDTKRYIEASTILTPEEKQQIYEGNARRVYPRLDAALKAKGKAAALEHHHHHH
result: not soluble
--
input.sequence: MPKDKKKDEVTEVEHVDRNISSFSQISHLIDAEIITRLTLSHNKLTSVPPNIADLVSLQSLNLWNNQIEDLPPSISSLPKLRILNVGMNKLSILPRGFGSFPELEILDLTYNNLSERSLPGNFFFMQTLRALYLGDNDFEMLPGDVENLTNLQILVLRENDLLTLPKELGKLTRLRELHIQGNRLAMIPPELGNLELVGSKQVLRLEHNPFIPRIEEQFEANGAAGVWAHIRTDDYRYFFGRQEPSSTPVPPKRNKEKKVSRKGIQQA
result: not soluble
--
input.sequence: MVLNSMRLFYILSQRDASSKNFNSSIYSRRSSRNSGCPGALFRSGRAVPFERVVGQQYFLKAYAILHSLNICRVEAGYIFDRKKTKFQDFLRFGRAGMASGVGGGSEGGPDDVKNSYIRVNGEPEIVYQ
result: not soluble
--
input.sequence: MTKIAFTGGGTVGHVSVNLSLIPTALSQGYEALYIGSKNGIEREMIESQLPEIKYYPISSGKLRRYISLENAKDVFKVLKGILDARKVLKKEKPDLLFSKGGFVSVPVVIAAKSLNIPTIIHESDLTPGLANKIALKFAKKIYTTFEETLNYLPKEKADFIGATIREDLKNGNAHNGYQLTGFNENKKVLLVMGGSLGSKKLNSIIRENLDALLQQYQVIHLTGKGLKDAQVKKSGYIQYEFVKEDLTDLLAITDTVISRAGSNAIYEFLTLRIPMLLVPLGLDQSRGDQIDNANHFADKGYAKAIDEEQLTAQILLQELNEMEQERTRIINNMKSYEQSYTKEALFDKMIKDALN
result: not soluble

Tell us which soluble on expression in E. coli value is on record for MGSDKIHHHHHHVTHKDMEYALDRVLAGSEKRSRSLVEEEREVVAYHEAGHALVGWMLEHTDALLKYEISIFRQKFRFPLKPLKSRRKVHFLREFLCNFPQRILENFKKIQKSYSKIQIFHQKFTQNIKKLKFPVLGEFLKFPANNSSEFLKNLKNFIKKIFFFEIFGPKLPQKVTIIPRTSAALGFAQYSPRDKHLFSKDELFDRMCMMLGGRCAENLKFGRATSGAQDDLQKVTKSAYAQVKLYGMSSIVGPLSFPNTEGFQIKPYSKKFASTFDQEATLIVAKANEATTDLIKNNMDKLETIAQALLKREVLNYEDVKKL not soluble

Tell us which soluble on expression in E. coli value is on record for MQVIAFIAPLIDKGMDPLTGVPIRQEVPRLMERTFQENQAETYVLFLINLDRFKLVNDSLGEGYGDQVLQTLVRRLLWQLPNQQWIARVSGDEFIACAAIKGELPKKETLATYISSIIQQPFQVDEVQFTMTASIGAAVYPMDGKSVEMIWNSLERALRHAKARGGNCVSWFCQELKDEWIHPFRLENDLRRAVENQELEHHHHHH not soluble

Tell us which soluble on expression in E. coli value is on record for MGKKKSDTASGGAIPEGDNEKGKKIFKQRCEQCHVVNSLQTKTGPTLNGVIGRQSGQVAGFDYSAANKNKGVVWDRQTLFDYLADPKKYIPGTKMVFAGLKKADERADLIKFIEVEAAKKPSA not soluble
